target: HCV glycoprotein E1E2-mediated membrane fusion (Hepatitis C virus genotype 1a); assay: cell-based; format: cell-based, Hepatitis C virus (strain H77); details: Cre/stop fusion system, peptide 1 µM, luciferase divided by solvent control (0.5% DMSO)
Sequence (P27958 384-746): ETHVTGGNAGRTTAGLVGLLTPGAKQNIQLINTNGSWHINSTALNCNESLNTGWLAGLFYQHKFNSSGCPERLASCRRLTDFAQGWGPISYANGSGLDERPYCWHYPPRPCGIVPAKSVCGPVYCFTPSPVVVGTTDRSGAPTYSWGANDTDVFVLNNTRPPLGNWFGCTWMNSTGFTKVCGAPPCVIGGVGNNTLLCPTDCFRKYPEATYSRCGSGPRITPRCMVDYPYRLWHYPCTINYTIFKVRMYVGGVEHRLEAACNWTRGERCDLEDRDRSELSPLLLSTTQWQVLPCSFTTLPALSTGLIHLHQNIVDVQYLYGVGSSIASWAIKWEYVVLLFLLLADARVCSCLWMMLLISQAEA
Sequence (P27958 192-383): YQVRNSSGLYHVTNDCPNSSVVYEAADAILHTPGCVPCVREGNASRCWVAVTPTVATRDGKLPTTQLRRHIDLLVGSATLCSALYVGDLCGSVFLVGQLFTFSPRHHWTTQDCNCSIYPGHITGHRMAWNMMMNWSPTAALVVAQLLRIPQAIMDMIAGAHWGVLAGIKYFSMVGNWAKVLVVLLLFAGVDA
recordedMetric: % of fusion (%)
Note: unit % is implicit; provide only the numeric part.

The examples below pair each entry with its known result.
Problem: Item GAAALCSAMYV GDLC GSVFLVAQLF TFSP R [HCV-6, 30-mer of overlapping E1E2 peptide library] has what recorded % of fusion?
Solution: 81.5

Problem: Item WQVLP CSFTTLP ALS TGLIHLHQNVVDVQY [HCV-33, 30-mer of overlapping E1E2 peptide library] has what recorded % of fusion?
Solution: 9.7

Problem: Item RCWVALTP TLAARNASVP TTTIRRHVDLLV [HCV-4, 30-mer of overlapping E1E2 peptide library] has what recorded % of fusion?
Solution: 85.2

***
Problem: Item VTGGTM AKNTLGI TSLFSP GSSQKIQLVNT [HCV-14, 30-mer of overlapping E1E2 peptide library] has what recorded % of fusion?
Solution: 69.6

Problem: Item SLNTGFLAALFYVHKFNSSGCPERMASCSP [HCV-17, 30-mer of overlapping E1E2 peptide library] has what recorded % of fusion?
Solution: 66.7

Problem: Item TGLIHLHQNVVDVQYLYGI GSAVVSFAIKW [HCV-34, 30-mer of overlapping E1E2 peptide library] has what recorded % of fusion?
Solution: 24.9
